test: in vivo
Parameters: species or system mice
assay.context: male, NODSCID 1L2RγKO, mouse, iv, total radioactivity, Adrenal glands uptake
Class true: tissue uptake at 120 h at least 0.4 %ID/g. Class false: tissue uptake at 120 h below 0.4 %ID/g.

Evaluate COc1ccc(CCCC(=O)NCC(=O)N[C@@H](CCCCNC(=O)CN2CCN(CC(=O)O)CCN(CC(=O)O)CCN(CC(=O)O)CC2)C(=O)NC[C@H]2CC[C@H](C(=O)N[C@@H](Cc3c4ccccc4cc4ccccc34)C(=O)NCCCC[C@H](NC(=O)N[C@@H](CCCC(=O)O)C(=O)O)C(=O)O)CC2)cc1 [177Lu-HTK03170, metal not drawn] : tissue uptake at 120 h at minimum 0.4 %ID/g?
false

Evaluate O=C(O)CCC[C@H](NC(=O)N[C@@H](CCCCNC(=O)[C@H](Cc1c2ccccc2cc2ccccc12)NC(=O)[C@H]1CC[C@H](CNC(=O)[C@H](CCCCNC(=O)CN2CCN(CC(=O)O)CCN(CC(=O)O)CCN(CC(=O)O)CC2)NC(=O)CNC(=O)CCCc2ccc(Cl)cc2)CC1)C(=O)O)C(=O)O [177Lu-HTK03153, metal not drawn] : tissue uptake at 120 h at minimum 0.4 %ID/g?
true

Evaluate COc1ccc(CCCC(=O)NCC(=O)N[C@@H](CCCCNC(=O)CN2CCN(CC(=O)O)CCN(CC(=O)O)CCN(CC(=O)O)CC2)C(=O)NC[C@H]2CC[C@H](C(=O)N[C@@H](Cc3c4ccccc4cc4ccccc34)C(=O)NCCCC[C@H](NC(=O)N[C@@H](COCC(=O)O)C(=O)O)C(=O)O)CC2)cc1 [177Lu-HTK04028, metal not drawn] : tissue uptake at 120 h at minimum 0.4 %ID/g?
false

Evaluate O=C(O)CCC[C@H](NC(=O)N[C@@H](CCCCNC(=O)[C@H](Cc1c2ccccc2cc2ccccc12)NC(=O)[C@H]1CC[C@H](CNC(=O)CN2CCN(CC(=O)O)CCN(CC(=O)O)CCN(CC(=O)O)CC2)CC1)C(=O)O)C(=O)O [177Lu-HTK03149, metal not drawn] : tissue uptake at 120 h at minimum 0.4 %ID/g?
false

Evaluate COc1ccc(CCCC(=O)NCC(=O)N[C@@H](CCCCNC(=O)CN2CCN(CC(=O)O)CCN(CC(=O)O)CCN(CC(=O)O)CC2)C(=O)NC[C@H]2CC[C@H](C(=O)N[C@@H](Cc3c4ccccc4cc4ccccc34)C(=O)NCCCC[C@H](NC(=O)N[C@@H](CSCC(=O)O)C(=O)O)C(=O)O)CC2)cc1 [177Lu-HTK04048, metal not drawn] : tissue uptake at 120 h at minimum 0.4 %ID/g?
false
